test system: SW-620; assay: NCI tumour cell line growth inhibition, 48 h
Calls of active or inactive are those of the source. Cut-off read from the data, not from the text of the source: active = GI50 up to about 1.1 µM and inactive = higher.
measurement_label: GI50

Solved entries (count: 5):
> print(dat)
                                   compound          assay.value
1            COc1ccccc1-n1c(C)nc2ccccc2c1=O  > 100 µM (inactive)
2  CC(C)(c1ccc(Oc2ccc(C#N)c(C#N)c2)cc1)c1ccc(Oc2ccc(C#N)c(C#N)c2)cc1  > 100 µM (inactive)
3  CCOc1ccccc1/N=N/c1ccc2oc(=O)c(C(C)=O)cc2c1  > 100 µM (inactive)
4  CC/C=C\C/C=C\C1CC(=O)NCCCNCCCCN1 (stereo unspecified)  > 100 µM (inactive)
5        C[N+](C)(C)C1=NNC2=Nc3ccccc3SC2=C1   24.4 µM (inactive)

Q) Would you mind telling me what GI50 value was observed for COc1ccc2nc(-c3cccs3)cc(C(O)CN3CCSCC3)c2c1 (stereo unspecified) ?
A) 30.7 µM (inactive)

Q) Can you look up the measured GI50 of Cc1ccc(/C=C2\CN(C)CC3C(c4ccc(C)cc4)=C(C#N)C(=O)NC23)cc1 (stereo unspecified) for me?
A) > 50 µM (inactive)

Q) What value of GI50 has been recorded for this entry: O=C1C2=C(c3ccccc31)C(c1ccc([N+](=O)[O-])cc1)NC(S)=N2 (stereo unspecified)
A) 81.1 µM (inactive)

Q) Can you share its GI50? I mean this compound: COc1ccc(C2c3cc4c(cc3OC(N3CCCCC3)C2C)OCO4)cc1 (stereo unspecified)
A) > 100 µM (inactive)

Q) Query (compound): C=C(C(=O)OC)[C@H]1CC/C(C)=C/CC[C@@](C)(O)C=CC[C@@]2(C)O[C@@H]2C1 ; field requested: GI50
A) 28.1 µM (inactive)

Q) I would be grateful if you could share the reported GI50 for Cc1ccc(C(N)=O)cc1/N=N/N(C)C .
A) > 100 µM (inactive)

###

test system: SN12C; assay: NCI tumour cell line growth inhibition, 48 h
Active and inactive are the calls of the source. Rule as the data show it: active = GI50 up to about 1.1 µM and inactive = higher.
Tick one outcome: active, inactive

// known answers, use as guide
compound	class_name
CC1(C)CCCC2(C)[C@@H]1CC[C@]13C[C@](C)(CC[C@@H]21)[C@@H]3CO (some centres not stated)	inactive
COc1cc(C2=C(c3cc(OC)c4ccccc4c3OC)C(=O)c3ccccc3C2=O)c(OC)c2ccccc12	inactive
C[N+](C)(C)CC1CCCC/C1=N\O (configuration not stated)	inactive
c1ccc([P+](CCCCCC[P+](c2ccccc2)(c2ccccc2)c2ccccc2)(c2ccccc2)c2ccccc2)cc1	inactive
CO/C(N)=C(C#N)/N=C/c1ccccc1	inactive

Q) # outcome recorded in this test, key = CCOC(=O)/N=c1/nc(N(C)C)ss1
A) inactive

Q) What outcome does the record of this test show for Cc1cc(NCCCCCCCNc2cc(C)nc3cc([N+](=O)[O-])ccc23)c2ccc([N+](=O)[O-])cc2n1 ?
A) inactive

Q) What was the test verdict on O=c1[nH]c2ccccc2c2oc(-c3ccccc3)nc12 ?
A) inactive

Q) Check the results log: what was the call for Nc1ccc2c(c1)C(=O)N(OS(=O)(=O)c1ccccc1)C2=O ?
A) inactive

Q) What was the test verdict on CC1(C)O[C@H]([C@H](O)c2nnc3ccc(Cl)nn23)[C@@H]([C@H]2COC(C)(C)O2)O1 ?
A) inactive

Q) Can you look up the reported call for O=C(CSc1nc2ccccc2c2ccccc12)c1ccccc1 for me?
A) inactive

Q) I would be grateful if you could indicate the recorded call for C=CCCON(C(=O)OC(C)(C)C)C(C)(C)C .
A) inactive

Q) Give the logged outcome of this assay for the following compound: O=C(CC(=O)N1N=C(N2CCCCC2)CC1c1ccccc1)Nc1ccccc1 (configuration not stated)
A) inactive

Q) Tell me the recorded outcome of this test for NC(=O)c1cc(N(CCO)CCO)c([N+](=O)[O-])cc1[N+](=O)[O-] .
A) inactive

###

Measured GI50, listed per entry for reference.
system: NCI-H522; assay: NCI tumour cell line growth inhibition, 48 h
The source made the active and inactive calls. No stated cut-off is given here; in the data, active = GI50 up to about 1.1 µM and inactive = higher.

> print(dat)
                                molecule         assay.value
1  CN(C)CCCNc1ccnc2cccc([N+](=O)[O-])c12  7.96 µM (inactive)

Q) GI50 lookup needed for CSC(=S)Nc1cccc(C)n1 , thanks.
A) > 100 µM (inactive)

###

test system: HOP-92; experiment: NCI tumour cell line growth inhibition, 48 h
Calls of active or inactive are those of the source. Cut-off read from the data, not from the text of the source: active = GI50 up to about 1.1 µM and inactive = higher.
Quick list: GI50 per entry.

Worked examples follow.
> print(dat)
                                   compound  measurement.label          assay.value
1  CC/C(CC(=O)CCC(=O)Nc1ccccc1[N+](=O)[O-])=N/NC(=O)C[n+]1ccccc1               GI50  > 100 µM (inactive)
2  Cc1cccc2c1CC(C1OC(=O)c3ccccc31)C2=O (stereo unspecified)               GI50  > 100 µM (inactive)
3  O=C(O)/C(=C/C(=O)c1ccc(Cl)cc1)NNc1ccc([N+](=O)[O-])cc1[N+](=O)[O-]               GI50   22.9 µM (inactive)
4                       O=c1ccc2ccc(S)cc2o1               GI50  > 100 µM (inactive)
5  c1ccc([P+](CCCCCC[P+](c2ccccc2)(c2ccccc2)c2ccccc2)(c2ccccc2)c2ccccc2)cc1               GI50   8.32 µM (inactive)

Q) I am curious: what GI50 value has been reported for CC(C)N(C(=O)C12CC3CC(CC(C3)C1)C2)C(C)C ?
A) > 50 µM (inactive)

Q) May I ask what GI50 has been recorded for Nc1ccc2c(c1)C(=O)N(OS(=O)(=O)c1ccccc1)C2=O ?
A) > 100 µM (inactive)

Q) So what does the record say about GI50 for CN(C)CCCNc1ccnc2cccc([N+](=O)[O-])c12 ?
A) 10.6 µM (inactive)

Q) Fill in: GI50 of N[C@@H](Cc1ccc2oc3cc(=O)c4ccccc4c-3nc2c1)C(=O)O is ___
A) > 100 µM (inactive)

Q) Would you kindly share the measured GI50 for COc1cc(CCNC2=CC(=O)c3cccnc3C2=O)ccc1O ?
A) 5.48 µM (inactive)

###

tested on: M14; test: NCI tumour cell line growth inhibition, 48 h
Activity calls are given as the source filed them. No stated cut-off is given here; in the data, active = GI50 up to about 1.1 µM and inactive = higher.
measurement_label: GI50

Q) Hello, I am looking for reported GI50 with M14 for CC(NC(=O)Cc1ccccc1)NC(=O)C(C)C(=O)Nc1ccccc1 (centres undefined) . Could you help?
A) > 100 µM (inactive)

Q) Lab note: need GI50 with M14 for entry CC/C(CC(=O)CCC(=O)Nc1ccccc1[N+](=O)[O-])=N/NC(=O)C[n+]1ccccc1 , please look it up.
A) > 100 µM (inactive)

Q) Missing value: GI50, M14, entry CN1CCCN2CCN(C)CCCN(CC1)CC2 . Fill in?
A) > 100 µM (inactive)

###

system: ACHN; assay: NCI tumour cell line growth inhibition, 48 h
Calls of active or inactive are those of the source. No stated cut-off is given here; in the data, active = GI50 up to about 1.1 µM and inactive = higher.
We begin with a simple list: items and their reported GI50.

Before answering, review these 8 worked examples.
> print(dat)
                                   compound  measurement.label          assay.value
1  O=C(NCCCCNCCCNC(=O)c1cc(-c2ccccc2)nc2ccccc12)c1cc(-c2ccccc2)nc2ccccc12               GI50    1.9 µM (inactive)
2   COc1cc2nc(-c3cccc(N(C)C)c3)cc(O)c2cc1OC               GI50   14.5 µM (inactive)
3  CC1(C)CCCC2(C)[C@@H]1CC[C@]13C[C@](C)(CC[C@@H]21)[C@@H]3CO (stereo not given in full)               GI50  > 100 µM (inactive)
4  C=CCc1ccc(Oc2cc(CC=C)c3c(c2O)O[C@@H](CO)[C@H]3c2ccc(O)c(-c3cc(CC=C)ccc3O)c2)cc1               GI50     67 µM (inactive)
5  COc1cc(NS(C)(=O)=O)ccc1N1Cc2c[nH]c3ccc4nc(C)cc1c4c23               GI50  > 100 µM (inactive)
6  O=C1CCCc2ccc3c(c21)CC1(Cc2cc4c(cc2C1)CCCC4)C3               GI50   16.1 µM (inactive)
7                 O=S1(=O)CCN(Cc2ccccn2)CC1               GI50  > 100 µM (inactive)
8  FC(F)(F)C1(c2ccccc2)SCc2nc3ccccc3n21 (stereo not given)               GI50  > 100 µM (inactive)

Q) What does the data say about its GI50? Entry: COP(=O)(OC)C(C)(C)NC(=O)NC(F)(F)F
A) > 100 µM (inactive)

Q) Returns the measured GI50 for the input compound. Input: COC(=O)CC1C=CC(C)(OC)OO1 (stereo not given)
A) 94.4 µM (inactive)
